Test Protocol: cytotoxicity in HPDE-C7 cells, cell-based, fluorescence, HTS (AID 430);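 note: cells exposed to compound for 48 hours before viability readout; 0% = vehicle and 100% = reference cytotoxic drug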
Run Parameters: HPDE-C7 pancreatic duct cells viability, at 10 µM, active compounds read high
Among all 63,000 compounds or so, about 1,100 (1.7%) were called active. This is one part of a sample in which actives are shown more often than they occur. Measured potencies and affinities stand elsewhere.
Endpoint Label: cytotoxicity

The compound listed as O=C(CCN1CCN(c2ccccc2F)CC1)Nc1ccccc1F shows cytotoxicity equal to -8.5% (inactive)

Documented cytotoxicity of COc1ccc(OCC(=O)Nc2ccc3c(c2)nc(CCN2CCOCC2)n3C)cc1 : 10.7% (inactive)

Documented cytotoxicity of N#Cc1c(-c2ccccc2)nc(SCc2nc(N)nc(N3CCCCC3)n2)[nH]c1=O : 9.2% (inactive)

Data point: COc1cccc(-c2nnc(NC(=O)c3ccc(S(=O)(=O)N(CC(C)C)CC(C)C)cc3)o2)c1 ; cytotoxicity = 51.2% (active)

* * *

Test Protocol: cytotoxicity in HPDE-C7 cells, cell-based, fluorescence, HTS (AID 430);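 note: cells exposed to compound for 48 hours before viability readout; 0% = vehicle and 100% = reference cytotoxic drug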
Run Parameters: HPDE-C7 pancreatic duct cells viability, at 10 µM, active compounds read high
About 1,100 (1.7%) of roughly 63,000 compounds were called active. The full list was thinned out, with actives kept by preference. Potency and affinity values are given separately.
Task for the reader: assign each of the following compounds its reported cytotoxicity.
Give just the number in %; leave the unit off.

Looking up COc1cc2c(=O)n(Cc3ccccc3)c(=O)n(CC(=O)C(C)(C)C)c2cc1OC , I see its cytotoxicity listed as -17.8

Record COC(=O)c1ccc(OC(=O)c2ccc(OC)c(OC)c2)c(OC)c1 . Reported cytotoxicity: 4.3

For reference, reported cytotoxicity for CCOC(=O)c1c(NC(C)=O)sc2c(O)c(CN3CCN(CC)CC3)ccc12 stands at 68

Quick note, cytotoxicity for CCn1c2ccccc2c2cc(CN3CCN(C(=O)c4ccco4)CC3)ccc21 landed at -25.2

Notebook: COc1cc2c(=O)n(Cc3ccco3)c(=O)n(CC(=O)c3cccc(Br)c3)c2cc1OC , cytotoxicity read as 55

Reported cytotoxicity of CC(C)c1ccc(O)c(N)c1 : 6.8

Lab note: measured cytotoxicity of COc1cc2c(=O)n(Cc3ccco3)c(=O)n(CC(=O)c3ccc(Br)cc3)c2cc1OC was 86

cytotoxicity reading for Cc1ccc(-c2noc(CCC(=O)NCCCN3CCN(c4cccc(Cl)c4)CC3)n2)cc1 : -6.5

get_value(item= CCn1cnc2scc(-c3ccccc3)c2c1=O , readout=cytotoxicity) returns -9.7

Memo: CCn1c2ccccc2c2cc(NC(=O)N3CCOCC3)ccc21 , reported cytotoxicity: 6.2

Looking up Cn1cc(/C=N/n2cnc3scc(-c4ccc(Cl)cc4)c3c2=O)c2ccccc21 , I see its cytotoxicity listed as 89.3

The measured cytotoxicity associated with COC(=O)c1ccc(Sc2ccc(C)cc2)c(N)c1 reads 9.4

Briefly, cytotoxicity measured for CCOC(=O)Cn1c(=O)n(Cc2ccco2)c(=O)c2ccc(C(=O)NCCc3ccccc3)cc21 : 7.2

Per the record, CCn1c(SCC#N)nc2c(c1=O)C1(CCCC1)Cc1ccccc1-2 has cytotoxicity of 41.8

The reported value for O=C(Nc1nc(-c2cccs2)c(-c2ccccc2)s1)c1ccco1 in terms of cytotoxicity is 53.7

Reported cytotoxicity of CCOC(=O)N1CCN(Cc2cc(=O)oc3ccc4ccccc4c23)CC1 : 14.3

The value of cytotoxicity measured for the compound Cn1cc(/C=N/n2cnc3scc(-c4ccccc4)c3c2=O)c2ccccc21 turned out to be 68.4

response.value for O=C(Nc1cc(=O)c2ccccc2o1)N1CCOCC1 (field: cytotoxicity) = 11.2

Entry O=C(Cn1c(CO)nc2ccccc21)Nc1cc(C(F)(F)F)ccc1N1CCOCC1 , cytotoxicity reported as 5.6

Lookup result for O=C(Nc1ccc(OC(=O)c2ccco2)cc1)c1ccco1 ; measured cytotoxicity: -10.9

The reported cytotoxicity of the compound C=C1c2ccc(C)cc2NC(=O)N1c1ccccc1 was -11.1

Data point: Cc1ccc(SC(C)C(=O)NCC(C)C)cc1 (centres undefined) ; cytotoxicity = -2.6

// cytotoxicity lookup, compound = COc1ccc(CCNC(=O)Cn2c(=O)n(Cc3ccco3)c(=O)c3ccc(Cl)cc32)cc1OC , result: 13.9

For reference, reported cytotoxicity for c1ccc(N2CCOCC2)c(Nc2nc3ccccc3n3cnnc23)c1 stands at -9.9
